Test: Solubility study in biological media (FaSSIF, FeSSIF, SGF, water) at 37° C.
Type: physicochemical
Conditions: thermodynamic from solid; water, pH 5.53; 2 h; 37° C.
quantityKind: solubility at 2 h (µg/mL)

{"compound": "N#C[C@@]1(c2ccc3c(N)ncnn23)O[C@H](COC(=O)C2CCCCC2)[C@@H](O)[C@H]1O [ATV-014 free base crystalline form I]", "quantityKind": "solubility at 2 h", "recordedMeasurement": 6}

###

Assay: Solubility study in biological media (FaSSIF, FeSSIF, SGF, water) at 37° C.
Format: physicochemical
Details: thermodynamic from solid; FaSSIF, pH 6.45; 0.5 h; 37° C.
quantityKind: solubility at 0.5 h (µg/mL)

{"compound": "N#C[C@@]1(c2ccc3c(N)ncnn23)O[C@H](COC(=O)C2CCCCC2)[C@@H](O)[C@H]1O [ATV-014 free base crystalline form I]", "quantityKind": "solubility at 0.5 h", "recordedMeasurement": 7}
